The measured values listed here are drawn from PubChem BioAssay (NCI).

Test system: EKVX NSCLC
Test: NCI tumour cell line growth inhibition, 48 h
Where a SMILES comes first, the peptide text is derived from it. The star is where a group is joined. Bn = c1ccc(C*)cc1
Recorded metric: TGI

### Prompt Supply reported TGI belonging to this compound: O=C(O)c1ccc2c(c1)CC1(C2)Cc2cc3c(cc2C1=O)CCC3 (centres undefined)
### Response > 100 µM

### Prompt Supply reported TGI belonging to this compound: `Clc1ccc(N=CNc2ccc(-c3nc4ccccc4o3)cc2)cc1`
### Response 2.84 µM

### Prompt Supply reported TGI belonging to this compound: `C/C(CCn1[nH]c(=O)ccc1=O)=N\OCCCc1ccccc1`
### Response > 100 µM

### Prompt Supply reported TGI belonging to this compound: `COc1ccc(N=NC(=Nc2ccc(F)cc2)c2ccc(N(CCC#N)CCC#N)cc2)cc1`
### Response > 100 µM

### Prompt Supply reported TGI belonging to this compound: O=C(c1ccco1)C1CC(c2c(O)ccc3ccccc23)=NN1 (centres undefined)
### Response 32.4 µM

### Prompt Supply reported TGI belonging to this compound: COC(=O)C1=C(C)NC(C)=C([N+](=O)[O-])C1c1cccc(N=O)c1 (centres undefined)
### Response 41.2 µM

### Prompt Supply reported TGI belonging to this compound: `COc1cc(C(=O)C/C(CCC(=O)Nc2ccc(Cl)cc2Cl)=N/NC(=O)C(=O)NN)ccc1O`
### Response > 100 µM

### Prompt Supply reported TGI belonging to this compound: O=C(OCC(OC(=O)c1ccccc1)C(OC(=O)c1ccccc1)C(OC(=O)c1ccccc1)c1cnn(-c2ccccc2)n1)c1ccccc1 (centres undefined)
### Response > 100 µM

### Prompt Supply reported TGI belonging to this compound: COC(=O)C(CC(C)C)NC(=O)C(N)Cc1ccc(OCc2ccccc2)cc1 (centres undefined) (H-Tyr(Bn)-Leu-OMe; configuration not given here)
### Response > 10 µM
